These data points were gathered from paper PMC6150412.

target: angiotensin converting enzyme (ACE) (Oryctolagus cuniculus)
Sequence (P12822 34-1310): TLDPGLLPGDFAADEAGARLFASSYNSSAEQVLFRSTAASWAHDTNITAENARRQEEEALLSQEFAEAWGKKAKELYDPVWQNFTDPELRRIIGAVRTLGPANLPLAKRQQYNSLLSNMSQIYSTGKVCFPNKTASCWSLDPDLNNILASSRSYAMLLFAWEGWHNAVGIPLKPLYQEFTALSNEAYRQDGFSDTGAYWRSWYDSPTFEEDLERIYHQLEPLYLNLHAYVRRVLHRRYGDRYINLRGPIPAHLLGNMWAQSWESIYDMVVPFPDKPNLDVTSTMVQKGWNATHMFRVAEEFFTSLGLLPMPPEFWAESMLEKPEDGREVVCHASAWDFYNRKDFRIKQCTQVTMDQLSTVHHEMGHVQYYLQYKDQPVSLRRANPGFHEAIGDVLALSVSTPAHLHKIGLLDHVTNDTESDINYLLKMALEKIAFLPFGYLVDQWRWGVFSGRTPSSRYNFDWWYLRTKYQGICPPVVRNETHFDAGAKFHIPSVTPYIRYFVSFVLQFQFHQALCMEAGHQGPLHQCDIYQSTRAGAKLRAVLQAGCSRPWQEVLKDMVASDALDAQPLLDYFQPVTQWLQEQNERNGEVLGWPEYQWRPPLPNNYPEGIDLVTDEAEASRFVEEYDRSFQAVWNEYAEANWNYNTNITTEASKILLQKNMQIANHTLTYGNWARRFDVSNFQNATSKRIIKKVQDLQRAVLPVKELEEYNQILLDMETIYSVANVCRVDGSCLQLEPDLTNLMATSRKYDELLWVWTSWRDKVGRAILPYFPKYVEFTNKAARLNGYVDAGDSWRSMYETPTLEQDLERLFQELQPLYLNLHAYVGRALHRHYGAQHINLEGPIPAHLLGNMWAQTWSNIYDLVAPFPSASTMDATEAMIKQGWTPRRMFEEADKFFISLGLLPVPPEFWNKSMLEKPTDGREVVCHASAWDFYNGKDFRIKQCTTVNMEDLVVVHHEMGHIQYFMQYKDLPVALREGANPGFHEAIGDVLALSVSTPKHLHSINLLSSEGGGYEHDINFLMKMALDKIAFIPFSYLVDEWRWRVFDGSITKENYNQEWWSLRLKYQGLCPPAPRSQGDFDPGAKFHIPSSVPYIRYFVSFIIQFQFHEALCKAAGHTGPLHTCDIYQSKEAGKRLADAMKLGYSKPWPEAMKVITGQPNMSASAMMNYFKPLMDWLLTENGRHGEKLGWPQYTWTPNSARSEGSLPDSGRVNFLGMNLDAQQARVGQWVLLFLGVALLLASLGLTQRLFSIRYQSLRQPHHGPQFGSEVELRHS
property_measured: IC50 (µM)
One number for each entry, in µM.

compound: CC(C)C[C@H](NC(=O)c1ccc(O)c(O)c1)C(=O)N1CCC[C@H]1C(=O)OC1CC2CCC1(C)C2(C)C (stereo partly drawn) [Compound 7e]
experimental_system: angiotensin converting enzyme (ACE) (Oryctolagus cuniculus)
units_text: µM
IC50: 10.6

Alright, here's another compound for you.
Challenge: Which IC50 reading was recorded for the compound CC(C)C[C@H](NC(=O)Cc1ccc(O)c(O)c1)C(=O)N1CCC[C@H]1C(=O)OC1CC2CCC1(C)C2(C)C (stereo partly drawn) [Compound 7f] ?
Response given: 14
